Values were extracted from the supplement of paper PMC9170038.

System: MS2 coat protein
test: apparent KD of MS2 coat protein; designed switch direction (-1 OFF switch, 1 ON switch): 1; higher = weaker reporter binding
experimental_setup: input ligand: microRNA oligo, concentration not stated
The threshold is inclusive: apparent KD of MS2 coat protein of exactly 200 nM counts as Y; values below receive N.

Reference set, count: 4
>  <biopolymer_sequence>
UAAAAGAAUUAAGGAUAUUGAAUACAUAUGUUUAACAUGAGGAUCACCCAUGUGGGUUGCGGUAUCGAGAAGGUAAAAUAAUAG [Mat - Same State NG 2 - JL mod - D6] (Eterna round: R96, puzzle: Same State NG 2)

>  <cat>
N

$$$$
>  <biopolymer_sequence>
GGUAGGUUACUACCAGACAUGAGGAUCACCCAUGUAAGUGGGAAGGAUAUGGUACCGUUUCGGUACCAGAAGGUCCUAAAUGAG [JL SSNG3 1.46] (Eterna round: R96, puzzle: Same State NG 3)

>  <cat>
Y

$$$$
>  <biopolymer_sequence>
AGAUGUUAAUUAGGAUAUGGGCACAUGAGGAUCACCCAUGUAUUUUCGAUGCUAUGUGGAGACGUCUAGAAGGGAUGGCUAACA [SameState NG2 #87] (Eterna round: R96, puzzle: Same State NG 2)

>  <cat>
N

$$$$
>  <biopolymer_sequence>
ACAUGAGACUUAGGAUAUGUUGUACCUACAUGUGACAUGAGGAUCACCCAUGUGGUAAGUAUGACACAGAAGGAAGAGAUAUGU [Equivalance 67 - Jieux - Same State NG 2] (Eterna round: R96, puzzle: Same State NG 2)

>  <cat>
N

$$$$

-- ask Exam item: decide whether the reported apparent KD of MS2 coat protein for AUUUUUAAUGCAGGAUAUGAUUAACAUGAGGAUCACCCAUGUGGUGUUGUGAGUAAGGAGAGUGAUCAGAAGGGCAUUUUUUUG [JMF's solution 90] (Eterna round: R96, puzzle: Same State NG 2) is at least 200 nM.
-- reply Y

-- ask Exam item: decide whether the reported apparent KD of MS2 coat protein for GUAGCAUACCGAGGAUAUUCAUAUAAUACAUGAGGAUCACCCAUGUUAUAUAGGCGAAAGCCUUGGGAGAAGGCGGAAUGCUAC [Xeonanis - 20 Mod65] (Eterna round: R96, puzzle: Same State NG 2) is at least 200 nM.
-- reply N

-- ask Exam item: decide whether the reported apparent KD of MS2 coat protein for GGUGGGUUACUACCCACACAUGAGGAUCACCCAUGUAUUGGGAAGGAUAUGGUACCUAUUUGGUACCAGAAGGUCCUGAAGGUG [SS-NG3-LRO16] (Eterna round: R96, puzzle: Same State NG 3) is at least 200 nM.
-- reply Y

-- ask Exam item: decide whether the reported apparent KD of MS2 coat protein for AUAAAACAUGAGGAUCACCCAUGUAGACGGAGAGCCGUCACAUAGGAUAUAGCCAGCGGUGUUGGCUAGAAGGGUGGUAGAAAA [Lavezaer] (Eterna round: R96, puzzle: Same State NG 3) is at least 200 nM.
-- reply N
